target: COX-I (Homo sapiens); construct: Fresh blood was collected by syringe without anticoagulants from volunteers with consent; endogenous in cells; host or cells: fresh human whole blood from volunteers, left to clot (TXB2 read-out); experiment: Whole blood assay for COX-I (TXB2 production); assay type: cell-based; settings: Table 1, read-out: Whole blood assay (IC50: μM) COX-I
Sequence (P23219 24-599): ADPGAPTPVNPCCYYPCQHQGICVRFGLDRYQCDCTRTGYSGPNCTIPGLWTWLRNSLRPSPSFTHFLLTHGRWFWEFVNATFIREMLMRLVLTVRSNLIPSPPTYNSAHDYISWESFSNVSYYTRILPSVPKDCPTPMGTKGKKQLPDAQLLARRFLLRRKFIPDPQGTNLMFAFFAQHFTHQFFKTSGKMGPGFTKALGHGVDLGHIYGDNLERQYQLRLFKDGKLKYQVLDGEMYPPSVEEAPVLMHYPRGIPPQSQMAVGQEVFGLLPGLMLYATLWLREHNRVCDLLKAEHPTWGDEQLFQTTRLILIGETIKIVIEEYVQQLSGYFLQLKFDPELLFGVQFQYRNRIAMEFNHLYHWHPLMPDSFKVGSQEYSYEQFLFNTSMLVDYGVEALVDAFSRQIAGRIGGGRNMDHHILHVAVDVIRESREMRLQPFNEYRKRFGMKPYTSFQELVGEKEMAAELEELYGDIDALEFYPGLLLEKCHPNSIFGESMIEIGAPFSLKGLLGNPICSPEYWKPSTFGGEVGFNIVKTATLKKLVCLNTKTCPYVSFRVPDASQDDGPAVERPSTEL
measured attribute: IC50 (µM)

>>> print(df.to_string())
                                   compound  readout_unit  experimental_value
0  COc1ccc(-c2cc(C#N)cnc2-c2ccc(OC)cc2)cc1 [Example 4]            µM               0.017

###

molecular target: COX-II (Homo sapiens); construct: lipopolysaccharide for 24 hr at 37° C. for induction of COX-II; endogenous in cells; host or cells: heparinized fresh human whole blood from volunteers, LPS-stimulated for 24 hr (PGE2 read-out); test: Whole blood assay for COX-II (LPS-induced PGE2 production); assay type: cell-based; conditions: LPS 24 hr, read-out: COX-II IC50
Sequence (P35354 18-604): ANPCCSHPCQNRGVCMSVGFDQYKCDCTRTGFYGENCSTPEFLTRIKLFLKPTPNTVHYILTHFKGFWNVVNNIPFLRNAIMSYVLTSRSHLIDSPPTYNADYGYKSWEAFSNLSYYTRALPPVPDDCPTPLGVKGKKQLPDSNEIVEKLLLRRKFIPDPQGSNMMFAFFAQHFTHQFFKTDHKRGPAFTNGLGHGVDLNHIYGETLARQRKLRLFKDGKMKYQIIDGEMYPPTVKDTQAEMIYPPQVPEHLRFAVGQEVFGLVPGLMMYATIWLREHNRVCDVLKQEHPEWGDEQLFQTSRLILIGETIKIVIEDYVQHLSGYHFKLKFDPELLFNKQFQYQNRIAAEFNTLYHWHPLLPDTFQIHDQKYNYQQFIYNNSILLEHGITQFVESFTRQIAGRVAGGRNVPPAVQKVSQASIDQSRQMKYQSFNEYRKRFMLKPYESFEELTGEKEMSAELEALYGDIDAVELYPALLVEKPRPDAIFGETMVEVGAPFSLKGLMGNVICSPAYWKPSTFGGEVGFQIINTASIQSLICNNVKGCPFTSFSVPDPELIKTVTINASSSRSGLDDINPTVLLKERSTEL
pIC50: −log10 of the molar value.
measured attribute: pIC50

In [3]: df
Out[3]:
                                   molecule  experimental_value
0  COc1ccc(-c2cc(C#N)c(OC)nc2-c2ccc(OC)cc2)cc1 [Example 6]              < 6.00
1  COc1ccc(-c2cc(C#N)c(Cl)nc2-c2ccc(OC)cc2)cc1 [Example 1-(3)]              < 6.00
2  COc1ccc(-c2cc(C#N)cnc2-c2ccc(OC)cc2)cc1 [Example 4]              < 6.00

###

system: stomachs (gastric lesions) of rats; assay: Gastric ulcerogenic activity in rats; assay type: in vivo, Male Sprague-Dawley rats; settings: oral, 5 h before autopsy, rats fasted 24 h
measured attribute: Gastric ulcerogenic activity (Non-toxic dose) (mg/kg)

>>> df
                                   compound  relational_operator  experimental_value
0  CC(C(=O)O)c1cccc(C(=O)c2ccccc2)c1 (centres unmarked) [G, Ketoprofen]                    =                 3.2
1  COc1ccc(-c2noc(CC(=O)O)c2-c2ccc(OC)cc2)cc1 [H, Mofezolac]                    =                  10
2  COc1ccc2c(c1)c(CC(=O)O)c(C)n2C(=O)c1ccc(Cl)cc1 [I, Indomethacin]                    =                   1
3  COc1ccc(-c2cc(C#N)cnc2-c2ccc(OC)cc2)cc1 [Example 4]                    >                 100
4  O=C(O)Cc1ccccc1Nc1c(Cl)cccc1Cl [J, Diclofenac]                    =                 3.2
